Provenance of the data: patent US10487088B2

- test target: recombinant human IDO1 enzyme (Homo sapiens)
- experimental details: In vitro hIDO1 enzyme activity test (NFK Green fluorescence)
- reported conditions: recombinant human IDO1, L-tryptophan substrate, pH 6.5
pIC50: −log10 of the molar value.
Reported pIC50 values are given for each entry in this list.

Output pIC50 of c1cc2c(s1)C(C1CCCC1)n1cncc1-2 (single isomer, unassigned) [Example 75]
< 5.00

Output pIC50 of c1ccc2c(c1)CCC(C1c3sccc3-c3cncn31)C2 (single isomer, unassigned) [Example 55]
< 5.00

Output pIC50 of c1cc2c(s1)C(C1CCOCC1)n1cncc1-2 (single isomer, unassigned) [Example 38]
< 5.00

Output pIC50 of c1ccc(N2CCC(C3c4sccc4-c4cncn43)CC2)cc1 (single isomer, unassigned) [Example 86]
6.26

Output pIC50 of FC1(F)CCC(CCC2c3sccc3-c3cncn32)CC1 (single isomer, unassigned) [Example 22]
7.64

Output pIC50 of c1cc2c(s1)C(C1CCC3(CC1)CC3)n1cncc1-2 (single isomer, unassigned) [Example 44]
< 5.00

Output pIC50 of c1ccc2c(C3CCC(C4c5sccc5-c5nccn54)CC3)ccnc2c1 (centres unmarked) [Example 96]
< 5.00

Output pIC50 of OC1CCCC(C2c3sccc3-c3cncn32)C1 (single isomer, unassigned) [Example 64]
< 5.00

====

Reported IC50 values are given for each entry in this list.
- test target: recombinant human IDO1 enzyme (Homo sapiens, UniProt P14902)
- Sequence (P14902 whole entry): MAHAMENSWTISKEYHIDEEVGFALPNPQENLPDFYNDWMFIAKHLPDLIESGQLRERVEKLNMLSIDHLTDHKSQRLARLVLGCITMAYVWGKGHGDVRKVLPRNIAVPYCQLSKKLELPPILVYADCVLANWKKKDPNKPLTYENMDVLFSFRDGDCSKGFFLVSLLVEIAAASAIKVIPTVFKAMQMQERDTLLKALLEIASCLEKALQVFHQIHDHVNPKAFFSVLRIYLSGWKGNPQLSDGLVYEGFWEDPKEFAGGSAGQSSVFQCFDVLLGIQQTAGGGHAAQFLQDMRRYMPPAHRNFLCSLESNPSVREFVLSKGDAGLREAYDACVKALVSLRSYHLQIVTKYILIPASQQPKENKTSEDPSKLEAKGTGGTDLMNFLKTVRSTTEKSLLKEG
- experimental details: In vitro hIDO1 enzyme activity test (NFK Green fluorescence)
- reported conditions: recombinant human IDO1, L-tryptophan substrate, pH 6.5

Answered examples (5):
| molecule | IC50 |
| --- | --- |
| c1cc2c(s1)C(C13CCC(CC1)CC3)n1cncc1-2 (single isomer, unassigned) [Example 49] | > 10 µM |
| c1ccc(C2CCC(C3c4sccc4-c4cncn43)CC2)cc1 (single isomer, unassigned) [Example 88] | 0.478 µM |
| OC1CCCC(C2c3sccc3-c3cncn32)C1 (single isomer, unassigned) [Example 69] | 2.32 µM |
| c1ccc(N2CCC(C3c4sccc4-c4cncn43)CC2)cc1 (single isomer, unassigned) [Example 87] | > 10 µM |
| c1cc2c(s1)C(CC1CCCCC1)n1cncc1-2 (single isomer, unassigned) [Example 15] | 5.22 µM |

Output IC50 of FC1(F)CCC([C@@H]2c3sccc3-c3cncn32)CC1 (single isomer, unassigned) [Example 40]
> 10 µM

Output IC50 of c1cc2c(s1)C(C1CCCOC1)n1cncc1-2 (single isomer, unassigned) [Example 33]
> 10 µM

Output IC50 of c1cc2c(s1)C(C1CCCCCC1)n1cncc1-2 (single isomer, unassigned) [Example 73]
> 10 µM

Output IC50 of c1ccc2c(c1)CCC(C1c3sccc3-c3cncn31)C2 (single isomer, unassigned) [Example 54]
> 10 µM

====

- test target: recombinant human IDO1 enzyme (Homo sapiens, UniProt P14902)
- experimental details: In vitro hIDO1 enzyme activity test (NFK Green fluorescence)
- reported conditions: recombinant human IDO1, L-tryptophan substrate, pH 6.5
recorded metric: IC50

Answered examples (3):
| compound | test target | IC50 |
| --- | --- | --- |
| c1ccc2c(C3CCC(C4c5sccc5-c5cncn54)CC3)ccnc2c1 (single isomer, unassigned) [Example 93] | recombinant human IDO1 enzyme (Homo sapiens, UniProt P14902) | > 10 µM |
| c1cc2c(s1)C(C1CCCOC1)n1cncc1-2 (single isomer, unassigned) [Example 34] | recombinant human IDO1 enzyme (Homo sapiens, UniProt P14902) | > 10 µM |
| CC(C)(C(O)C1CCCCC1)C1c2sccc2-c2cncn21 (single isomer, unassigned) [Example 122] | recombinant human IDO1 enzyme (Homo sapiens, UniProt P14902) | > 10 µM |

We now examine a further compound.
Provide the reported IC50 (system: recombinant human IDO1 enzyme (Homo sapiens, UniProt P14902)) for O[C@@H]1CCCC1[C@H]1c2sccc2-c2cncn21 (single isomer, unassigned) [Example 110]
> 10 µM
